Data provenance: the supplement of paper PMC10567573

B1: DVL3 (parent)
chain: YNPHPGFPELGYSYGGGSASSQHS

# Variants of: B1
# protocol_notes: protein stability index of a GFP-peptide fusion (GPS, HEK-293T) (PSI 1-6); higher = more stable;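 also: lentivirally expressed fusions sorted by FACS into six bins by GFP to DsRed ratio, PSI derived from sequencing read proportions per bin multiplied by bin number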
# study_conditions: c terminus: a fixed tail appended
# binarize protein stability index: threshold 3 inclusive, high side Yes, low side No

Here are 5 variants together with their reported answers.
Record `G17Y` ; criterion: protein stability index no lower than 3. Met?
No

Could you do the same for `H4T` , please?
No

Could you do the same for `E9S` , please?
No

Could you do the same for `S13I` , please?
No

Could you do the same for `S20L` , please?
No

***
Record `G15M` ; criterion: protein stability index no lower than 3. Met?
No

Could you do the same for `N2M` , please?
No

Could you do the same for `F7I` , please?
No

Could you do the same for `L10W` , please?
No

Could you do the same for `Y12I` , please?
No

Could you do the same for `L10Y` , please?
No

Could you do the same for `Y1F` , please?
No

Could you do the same for `P5C` , please?
No

Could you do the same for `G6C` , please?
No

Could you do the same for `H4Q` , please?
No

Could you do the same for `G17S` , please?
Yes

Could you do the same for `Q22N` , please?
No

Could you do the same for `Y1N` , please?
Yes

Could you do the same for `G15E` , please?
Yes

Could you do the same for `G6T` , please?
No

Could you do the same for `S18I` , please?
No
